pIC50: −log10 of the molar value.
This section presents pIC50 values reported for cGMP-inhibited 3',5'-cyclic phosphodiesterase 3B (Homo sapiens, UniProt Q13370) in the literature.
Property label: pIC50

Solved entries:
[[record]]
molecule = "CCN(CC)c1ccc(C2=NNC(=O)C[C@H]2C)cc1[N+](=O)[O-]"
property_label = "pIC50"
experimental_result = 7.00

[[record]]
molecule = "Clc1ccc(-c2csc(-n3cc(-c4nnn[nH]4)cn3)n2)cc1"
property_label = "pIC50"
experimental_result = 5.42

[[record]]
molecule = "COc1cc2ccnc(Cc3ccc(OC)c(OCCF)c3)c2cc1OC"
property_label = "pIC50"
experimental_result = 5.60

[[record]]
molecule = "CC1CC(=O)NN=C1c1ccc(NC2=C(Cc3cccc(F)c3)C(=O)CCC2)cc1 (stereo not given)"
property_label = "pIC50"
experimental_result = 9.15


A. CC1CC(=O)NN=C1c1ccc(NC2=C(Cc3ccccc3)C(=O)CCC2)cc1F (stereo not given)
B. CC1(C)C(=O)NN=C1c1ccc(NC2=C(Cc3ccccc3F)C(=O)CCC2)cc1F
C. Cc1ccccc1-c1csc(-n2cc(-c3nnn[nH]3)cn2)n1
D. C[C@@H]1OC(=O)NN=C1c1ccc(OCCC(F)(F)F)c(C(F)(F)F)c1
E. Cc1cc(=O)[nH]c2ccc(OCc3cccc(C(=O)N4CCOCC4)c3)cc12
query: Given 5 molecules, produce a descending ranking by pIC50. Rank the items, then write their labels in that order.
result: A, B, D, E, C
(A: 9.62, B: 8.96, D: 8.30, E: 5.81, C: 4.78)
